- SYSTEM TESTED: T1, human LAG-3 (human, UniProt P18627 23-450, limits assumed)
- T1 construct: Selections used human LAG-3-Fc, human LAG-3-6His, a 30 aa LAG-3 peptide and/or cells with cynomolgus LAG-3; also called CD223
- T1 sequence (looked up): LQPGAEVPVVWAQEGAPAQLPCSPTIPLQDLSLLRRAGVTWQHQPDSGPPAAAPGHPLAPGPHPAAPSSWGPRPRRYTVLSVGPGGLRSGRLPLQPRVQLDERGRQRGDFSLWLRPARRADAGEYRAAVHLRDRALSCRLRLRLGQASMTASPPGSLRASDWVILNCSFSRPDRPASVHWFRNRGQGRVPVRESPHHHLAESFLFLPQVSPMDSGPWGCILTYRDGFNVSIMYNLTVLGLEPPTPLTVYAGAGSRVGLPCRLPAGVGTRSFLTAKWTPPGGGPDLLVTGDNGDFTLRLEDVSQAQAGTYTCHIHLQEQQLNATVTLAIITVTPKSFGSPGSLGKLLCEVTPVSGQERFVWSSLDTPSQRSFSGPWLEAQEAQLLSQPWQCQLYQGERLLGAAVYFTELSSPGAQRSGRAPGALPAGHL
- ASSAY EXPLANATION: Fab phage display selection; periplasmic extracts screened by ELISA or flow cytometry
READOUT: binding result

P14F01 Fab (Fab, V domains shown, Murine Fab, periplasmic extract) VH: QVQLQQSGAELVKPGASVELSCTASGFNIRDTYMYWVKQRPEQGLEWIGRIDPANGNTKFDPKFQDRATMTADTSSNTAYLQLSSLTSEDTAVYYCTTYFYRYDVGGFDYWGQGTTLTVS VL: ENVLTQSPALMAASPGEKVTITCSVSSSISSSNLHWYQQKSGTSPKLWIYGTSNLASGVPVRFSGSGSGTSYSLTISSMEAEDAATYYCQQWSTYPFTFGSGTKLEIK
binds
P15B06 Fab (Fab, V domains shown, Murine Fab, periplasmic extract) VH: EVQLQQSGAELVKPGASVKLSCTASGFNIKDTYMYWVKQRPEQGLDWIGRIDPANGNTHFDPKFQGKATITADTSSNTAYLQLSSLTSEDTAVYYCSTYFYRYDVGGFDYWGQGTTLTVS VL: QILLTQSPALMAASPGEKVTITCSVSSSISSSNLHWYQQKSGTSPKLWIYGTSNLASGVPVRFSGSGSGTSYSLTISSMEAEDAATYYCQQWSSYPLTFGAGTKLELK
binds
P01C09 Fab (Fab, V domains shown, Murine Fab, periplasmic extract) VH: QVQLKQSGAELVKPGASVKLSCTASGFNIKDTYMYWVKQRPEQGLEWIGRIDPANGNTKYDPKLQGKATITADTSSNTVYLQLSSLTSEDTAVFYCVIYSYRYDVGGFDYWGQGTTLTVS VL: EIVLTQSPALMAASPGEKVTITCSVSSSISSSNLHWYQQKSGTSPKLWIYGTSNLASGVPVRFSGSGSGTSYSLTISSMEAEDAATYYCQQWSSYPFTFGSGTKLEIK
binds
